Target: T1, mouse CD47 (mouse, UniProt Q61735 19-303)
T1 construct: whole, on cells; also called CD47 on mouse red blood cells
T1 sequence (looked up): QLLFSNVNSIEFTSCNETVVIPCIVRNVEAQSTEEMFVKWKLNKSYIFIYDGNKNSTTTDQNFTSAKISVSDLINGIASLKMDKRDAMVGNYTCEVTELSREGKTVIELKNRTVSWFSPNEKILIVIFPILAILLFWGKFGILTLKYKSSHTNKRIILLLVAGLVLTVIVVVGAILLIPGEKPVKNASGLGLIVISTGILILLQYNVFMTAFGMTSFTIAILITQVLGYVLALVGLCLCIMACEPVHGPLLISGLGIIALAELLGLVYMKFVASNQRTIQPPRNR
Assay: flow cytometry on RBCs, antibody 10 ng/ml
ASSAY_READOUT: mean fluorescence relative to chimeric antibody

INSERT INTO measurements (binder, readout_value) VALUES
  ('pVxK7b-037-hum15-LC/pVxK7b-037-hum15-HC (antibody, human IgG1, V domains shown, Full-length human IgG1/kappa in CHO supernatant; Variable entries end within framework 4 (...FGQG / ...WGQG); also called Clone 15) VH: QVQLQESGPGLVKPSQTLSLTCTVSGYTFTNYYVFWVRQARGQRLEWIGDINPVNGDTNFNEKFKNRLTISKDTSKNQVVLTMTNMDPVDTATYYCARGGYTMDYWGQG VL: AIQLTQSPSSLSASVGDRVTITCRSSQSLVHSNGNTYLHWYQQKPGQAPRLLIYKVSYRFSGVPSRFSGSGSGTEFTLTISSLQPDDFATYYCSQNTHVPRTFGQG', '1.3 fold of chimera'),
  ('pVxK7b-037-hum02-LC/pVxK7b-037-hum02-HC (antibody, human IgG1, V domains shown, Full-length human IgG1/kappa in CHO supernatant; Variable entries end within framework 4 (...FGQG / ...WGQG); also called Clone 2) VH: QVQLQESGPGLVKPSQTLSLTCTVSGYTFTNYYVFWVRQARGQRLEWIGDINPVNGDTNFNEKFKNRVTISADKSISTAYLQWSSLKASDTAMYYCARGGYTMDYWGQG VL: DVVMTQSPLSLPVTLGQPASISCRSSQSLVHSNGNTYLHWYQQKPGQAPRLLIYKVSYRFSGVPSRFSGSGSGTEFTLTISSLQPDDFATYYCSQNTHVPRTFGQG', '1.2 fold of chimera'),
  ('pVxK7b-037-hum19-LC/pVxK7b-037-hum19-HC (antibody, human IgG1, V domains shown, Full-length human IgG1/kappa in CHO supernatant; Variable entries end within framework 4 (...FGQG / ...WGQG); also called Clone 19) VH: EVQLVQSGAEVKKPGESLRISCKGSGYTFTNYYVFWIRQSPSRGLEWLGDINPVNGDTNFNEKFKNRVTITADKSTSTAYMELSSLRSEDTAVYYCARGGYTMDYWGQG VL: DVVMTQSPLSLPVTLGQPASISCRSSQSLVHSNGNTYLHWYQQKPGKAPKLLIYKVSYRFSGVPDRFSGSGSGTDFTLKISRVEAEDVGVYYCSQNTHVPRTFGQG', '1 fold of chimera'),
  ('pVxK7b-037-hum17-LC/pVxK7b-037-hum17-HC (antibody, human IgG1, V domains shown, Full-length human IgG1/kappa in CHO supernatant; Variable entries end within framework 4 (...FGQG / ...WGQG); also called Clone 17) VH: EVQLVQSGAEVKKPGATVKISCKVSGYTFTNYYVFWIRQPPGKGLEWIGDINPVNGDTNFNEKFKNRVTITADKSTSTAYMELSSLRSEDTAVYYCARGGYTMDYWGQG VL: AIQLTQSPSSLSASVGDRVTITCRSSQSLVHSNGNTYLHWYQQKPGQAPRLLIYKVSYRFSGVPDRFSGSGSGTDFTLKISRVEAEDVGVYYCSQNTHVPRTFGQG', '0.9 fold of chimera'),
  ('chimeric antibody VxP037-01LC/VxP037-01HC (antibody, human IgG1, kappa, V domains shown, tested as CHO supernatant; also called Chimera; VxP037-01-LC-Pro/VxP037-01-HC-Pro) VH: EVQLQQFGAELVKPGASMKLSCKASGYTFTNYYVFWVKQRPGQGLEWIGDINPVNGDTNFNEKFKNKATLTVDKSSTTTYLQLSSLTSEDSAVYYCTRGGYTMDYWGQGTLVTVSS VL: DVVMTQTPLSLSVSLGDQASISCRSSQSLVHSNGNTYLHWYLQKPGQSPKLLIYKVSYRFSGVPDRFSGSGSGTDFTLKISRVEAEDLGVYFCSQNTHVPRTFGQGTKVEIKR', '1 fold of chimera'),
  ('pVxK7b-037-hum04-LC/pVxK7b-037-hum04-HC (antibody, human IgG1, V domains shown, Full-length human IgG1/kappa in CHO supernatant; Variable entries end within framework 4 (...FGQG / ...WGQG); also called Clone 4) VH: QVQLQESGPGLVKPSQTLSLTCTVSGYTFTNYYVFWVRQAPGKGLEWVSDINPVNGDTNFNEKFKNRVTISVDTSKNQFSLKLSSVTAADTAVYYCARGGYTMDYWGQG VL: DIQMTQSPSSLSASVGDRVTITCRSSQSLVHSNGNTYLHWYLQKPGQSPQLLIYKVSYRFSGIPARFSGSGSGTEFTLTISSLQSEDFAVYYCSQNTHVPRTFGQG', '0.6 fold of chimera'),
  ('pVxK7b-037-hum23-LC/pVxK7b-037-hum23-HC (antibody, human IgG1, V domains shown, Full-length human IgG1/kappa in CHO supernatant; Variable entries end within framework 4 (...FGQG / ...WGQG); also called Clone 23) VH: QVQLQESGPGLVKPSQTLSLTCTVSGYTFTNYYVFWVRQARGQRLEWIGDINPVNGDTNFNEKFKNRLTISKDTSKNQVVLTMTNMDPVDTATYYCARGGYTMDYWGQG VL: DIVMTQTPLSLPVTPGEPASISCRSSQSLVHSNGNTYLHWYQQKPGKAPKLLIYKVSYRFSGVPDRFSGSGSGTDFTLKISRVEAEDVGVYYCSQNTHVPRTFGQG', '1.4 fold of chimera'),
  ('pVxK7b-037-hum01-LC/pVxK7b-037-hum01-HC (antibody, human IgG1, V domains shown, Full-length human IgG1/kappa in CHO supernatant; Variable entries end within framework 4 (...FGQG / ...WGQG); also called Clone 1) VH: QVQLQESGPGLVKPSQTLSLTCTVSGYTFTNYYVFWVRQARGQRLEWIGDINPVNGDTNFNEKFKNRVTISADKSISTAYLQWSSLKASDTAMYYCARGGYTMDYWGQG VL: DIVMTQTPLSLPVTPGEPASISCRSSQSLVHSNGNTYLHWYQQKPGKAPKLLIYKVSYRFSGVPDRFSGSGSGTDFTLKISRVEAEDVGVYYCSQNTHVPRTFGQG', '1.7 fold of chimera'),
  ('pVxK7b-037-hum22-LC/pVxK7b-037-hum22-HC (antibody, human IgG1, V domains shown, Full-length human IgG1/kappa in CHO supernatant; Variable entries end within framework 4 (...FGQG / ...WGQG); also called Clone 22) VH: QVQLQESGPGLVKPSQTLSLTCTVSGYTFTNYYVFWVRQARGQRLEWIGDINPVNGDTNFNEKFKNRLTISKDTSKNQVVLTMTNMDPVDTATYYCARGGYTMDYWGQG VL: EIVLTQSPATLSVSPGERATLSCRSSQSLVHSNGNTYLHWYQQKPGQAPRLLIYKVSYRFSGVPSRFSGSGSGTDFTFTISSLEAEDAATYYCSQNTHVPRTFGQG', '1.2 fold of chimera'),
  ('pVxK7b-037-hum21-LC/pVxK7b-037-hum21-HC (antibody, human IgG1, V domains shown, Full-length human IgG1/kappa in CHO supernatant; Variable entries end within framework 4 (...FGQG / ...WGQG); also called Clone 21) VH: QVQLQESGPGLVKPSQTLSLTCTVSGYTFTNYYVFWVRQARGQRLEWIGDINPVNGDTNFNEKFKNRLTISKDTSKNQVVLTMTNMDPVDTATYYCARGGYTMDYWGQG VL: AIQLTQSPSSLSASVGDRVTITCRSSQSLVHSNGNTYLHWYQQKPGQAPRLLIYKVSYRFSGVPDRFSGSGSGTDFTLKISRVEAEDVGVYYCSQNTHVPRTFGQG', '1.2 fold of chimera');
